All figures here come from PubChem BioAssay (NCI).

Tested on: SR leukemia
Test: NCI tumour cell line growth inhibition, 48 h
Parameter GI50: see the listing below.
reportedEndpoint: GI50

{"compound": "COc1ccc2c(c1)/C(=N/OC(C)=O)c1c-2c(Nc2cccc(/C(C)=N/OC(C)=O)c2)nc2ccccc12", "observedValue": "94400 nM"}
{"compound": "CC[N+](CC)=c1cc2oc3cc(N(C)C)ccc3nc-2cc1C", "observedValue": "2740 nM"}
{"compound": "ClCc1ccccc1Cn1cnc2c(Cl)nc(Cl)nc21", "observedValue": "1770 nM"}
{"compound": "c1cc[n+](C2c3ccccc3C([n+]3ccccc3)c3ccccc32)cc1 (stereo not given)", "observedValue": "7640 nM"}
{"compound": "Nc1n[nH]c2cccc(C#Cc3cccc(NC(=O)c4ccc(N5CCOCC5)c(C(F)(F)F)c4)c3)c12", "observedValue": "2400 nM"}

====

Test system: OVCAR-4 ovarian
Assay: NCI tumour cell line growth inhibition, 48 h; in the data active = GI50 below about 0.43 µM; inactive = the rest
Outcome codes: active, inactive

{"molecule": "CSc1nc(-c2cc3ccccc3o2)cc(-c2ccc(Cl)cc2)c1C#N", "label": "inactive"}
{"molecule": "COC1=C(OC)C(=O)C(CCCCCCCCCC[P+](c2ccccc2)(c2ccccc2)c2ccccc2)=C(C)C1=O", "label": "active"}
{"molecule": "C[C@]12CC[C@@H]3c4ccc(O)cc4CC[C@H]3[C@@H]1CC[C@@H]2NS(=O)(=O)c1ccc(Cl)cc1", "label": "inactive"}
{"molecule": "Clc1ccc(C(Cn2ccnc2)OCc2ccsc2Cl)c(Cl)c1 (centres undefined)", "label": "inactive"}
{"molecule": "COc1ccc(/C(C)=C(\\c2ccc(Cl)cc2)c2ccc(OCCN3CCCCC3)cc2)cc1", "label": "inactive"}
{"molecule": "OCCCCC#Cc1ccccc1C#Cc1ccccn1", "label": "inactive"}
{"molecule": "S=C(S)NCCNC(=S)S.[Cu+2]", "label": "inactive"}
{"molecule": "Nc1n[nH]c2cccc(C#Cc3cccc(NC(=O)c4ccc(N5CCOCC5)c(C(F)(F)F)c4)c3)c12", "label": "inactive"}
{"molecule": "COc1cc(-c2nccn2-c2ccc3ccccc3c2)cc(OC)c1OC", "label": "inactive"}

====

Tested on: SK-MEL-28 melanoma
Test: NCI tumour cell line growth inhibition, 48 h; in the data active = GI50 below about 0.43 µM; inactive = the rest
Outcome codes: active, inactive

{"compound": "CN[C@@H](C)C(=O)N[C@H]1CCS[C@H]2CC(C)(C)[C@@H](C(=O)N[C@H]3c4ccccc4C[C@H]3OCC#CC#CCO[C@@H]3Cc4ccccc4[C@@H]3NC(=O)[C@H]3N4C(=O)[C@@H](NC(=O)[C@H](C)NC)CCS[C@H]4CC3(C)C)N2C1=O", "label": "inactive"}
{"compound": "COc1cccc2c1C(=O)c1c(O)c3c(c(O)c1C2=O)C[C@@](O)(C(=O)CO)C[C@@H]3OC1CC2C(OCN3CN2COC2C(C)OC(O[C@H]4C[C@](O)(C(=O)CO)Cc5c(O)c6c(c(O)c54)C(=O)c4c(OC)cccc4C6=O)CC23)C(C)O1 (stereo partly drawn)", "label": "active"}
{"compound": "CC[C@H](C)[C@H](NC(=O)c1ccccn1)C(=O)N(C)[C@H](C[C@@H](OC(C)=O)c1nc(C(=O)N[C@@H](Cc2ccccc2)C[C@H](C)C(=O)OC)cs1)C(C)C", "label": "inactive"}

====

Test system: M14 melanoma
Assay: NCI tumour cell line growth inhibition, 48 h; in the data active = GI50 below about 0.43 µM; inactive = the rest
Outcome codes: y = active, n = inactive

{"compound": "CC[N+](CC)=c1cc2oc3cc(N(C)C)ccc3nc-2cc1C", "label": "n"}
{"compound": "C1C[OH+]CC[OH+]CC[OH+]CC[OH+]CC[OH+]CC[OH+]1.[Cl-].[V]", "label": "n"}
{"compound": "CCC[CH2][Sn]1([CH2]CCC)[O]CC(CN2CCCCC2)[O]1 (stereo not drawn)", "label": "y"}

====

Parameter TGI: see the listing below.
Test system: OVCAR-3 ovarian
Test: NCI tumour cell line growth inhibition, 48 h
reportedEndpoint: TGI

{"molecule": "CC(=O)OCC1OC(N2C(=O)NC(=O)C3C=C4CCCCC4=CC32)C(OC(C)=O)C1OC(C)=O (stereo unspecified)", "observedValue": "> 100 µM"}
{"molecule": "c1cc[n+](C2c3ccccc3C([n+]3ccccc3)c3ccccc32)cc1 (stereo unspecified)", "observedValue": "> 77 µM"}
{"molecule": "COc1cccc(C2=C(c3cn(C)c4ccc(Cl)cc34)C(=O)NC2=O)c1", "observedValue": "> 17.2 µM"}
{"molecule": "COC(=O)Cc1cc2c(cc1C(=O)c1ccc(N)cc1)OCO2", "observedValue": "6.99 µM"}
{"molecule": "Cc1ccc(C(=O)N/N=C(\\N=Nc2cccc([N+](=O)[O-])c2)c2ccc(N(C)C)cc2)cc1", "observedValue": "> 100 µM"}
{"molecule": "C[C@]12CC[C@@H]3c4ccc(O)cc4CC[C@H]3[C@@H]1CC[C@@H]2NS(=O)(=O)c1ccc(Cl)cc1", "observedValue": "12.8 µM"}

====

Parameter GI50: see the listing below.
Tested on: SK-MEL-2 melanoma
Experiment: NCI tumour cell line growth inhibition, 48 h

{"molecule": "C1C[OH+]CC[OH+]CC[OH+]CC[OH+]CC[OH+]CC[OH+]1.[Cl-].[V]", "GI50": "29.2 µM"}
{"molecule": "CCCC[C@H](NC(=O)[C@H]1CCCCN1C)C(=O)N(C)[C@H](C[C@@H](OC(C)=O)c1nc(C(=O)N[C@@H](Cc2ccccc2)C[C@H](C)C(=O)OCC)cs1)C(C)C", "GI50": "< 0.00333 µM"}
{"molecule": "CCC[CH2][Sn]1([CH2]CCC)[O]CC(CN2CCCCC2)[O]1 (centres undefined)", "GI50": "0.185 µM"}
{"molecule": "O=C(Cc1n[nH]c(=O)c2ccccc12)OCc1c(Cl)cccc1Cl", "GI50": "> 100 µM"}
{"molecule": "c1cc[n+](C2c3ccccc3C([n+]3ccccc3)c3ccccc32)cc1 (centres undefined)", "GI50": "15 µM"}
{"molecule": "C[C@]12CC[C@@H]3c4ccc(O)cc4CC[C@H]3[C@@H]1CC[C@@H]2NS(=O)(=O)c1ccc(Cl)cc1", "GI50": "5.31 µM"}
{"molecule": "COc1cccc2[nH]c3c4c(c5c(c3c12)C(=O)N(CN1CCN(C)CC1)C5=O)CCC4", "GI50": "22.7 µM"}
{"molecule": "COc1ccc(-c2cn[nH]c2-c2cc(OC)c(OC)c(OC)c2)cc1OCc1ccccc1", "GI50": "4.27 µM"}
{"molecule": "O=C(Nc1ccc2[nH]c3ccccc3c2c1)c1ccccc1Cl", "GI50": "5.35 µM"}

====

System: IGROV1 ovarian
Test: NCI tumour cell line growth inhibition, 48 h

{"compound": "Oc1c(Br)cc(Br)c2ccc(Cn3cc(-c4ccc(C(F)(F)F)cc4)nn3)nc12", "unitString": "µM", "comparisonSymbol": "=", "TGI": 3.25}
{"compound": "COC(=O)Cc1cc2c(cc1C(=O)c1ccc(N)cc1)OCO2", "unitString": "µM", "comparisonSymbol": "=", "TGI": 13}
{"compound": "COc1ccc(/C=C2/SC(c3ccc(Cl)cc3)N(NC(=O)CCCCCCCCC(=O)NN3C(=O)/C(=C\\c4ccc(OC)c(OC)c4)SC3c3ccc(Cl)cc3)C2=O)cc1OC (stereo not given)", "unitString": "µM", "comparisonSymbol": "=", "TGI": 59.8}
{"compound": "CC(C)(CNC(=O)/C(Cl)=C(/Cl)C(=O)O)CNC(=O)/C(Cl)=C(/Cl)C(=O)O", "unitString": "µM", "comparisonSymbol": ">", "TGI": 100}
{"compound": "O=S(=O)(c1ccc(Cl)cc1)c1ccccc1C1=NCCN1", "unitString": "µM", "comparisonSymbol": ">", "TGI": 100}
{"compound": "COc1nc(N)c(N=O)c(OCc2ccccc2)n1", "unitString": "µM", "comparisonSymbol": ">", "TGI": 10}
{"compound": "CCn1c(O)c(C=Nc2ccccc2)s/c1=N/Nc1ncc(CC(=O)Nc2ccccc2C)s1", "unitString": "µM", "comparisonSymbol": ">", "TGI": 100}
{"compound": "Cc1cc(C(=O)NCCN(C)C)c2nc3ccccc3cc2c1", "unitString": "µM", "comparisonSymbol": "=", "TGI": 12.6}
{"compound": "OC1CCCN(C2(c3cccs3)CCCCC2)C1 (stereo not given)", "unitString": "µM", "comparisonSymbol": ">", "TGI": 100}
{"compound": "O=C(Cc1cc[n+]([O-])cc1)C(=O)Nc1cc(Cl)c(Cl)cc1Cl", "unitString": "µM", "comparisonSymbol": ">", "TGI": 100}

====

System: A549 NSCLC
Experiment: NCI tumour cell line growth inhibition, 48 h
Where a SMILES comes first, the peptide text is derived from it. [ ]: non-standard residue; d: D form. The star is where a group is joined. Dolaproine = CO[C@@H]([C@@H]1CCCN1)[C@@H](C)C(=O)O; Dil = CC[C@H](C)[C@H](NC)[C@@H](CC(=O)O)OC; X2 = C[C@@H](N*)[C@@H](O)c1ccccc1; NMeV = CN[C@H](C(=O)O)C(C)C
Parameter TGI: see the listing below.

{"compound": "COc1cc(C(=O)O)ccc1OS(=O)(=O)O", "TGI": "> 100 µM"}
{"compound": "COC(=O)C12C3C4(C(=O)OC)C1C1(C(=O)OC)C2C3(C(=O)OC)C41C(=O)N(C(C)C)C(C)C (stereo unspecified)", "TGI": "> 100 µM"}
{"compound": "COc1cc(C(c2c(O)c3ccccc3oc2=O)c2c(O)c3ccccc3oc2=O)ccc1O", "TGI": "> 100 µM"}
{"compound": "CCNCCCNc1c2ccccc2nc2ccccc12", "TGI": "3.38 µM"}
{"compound": "CC(C)(C)OC(=O)NCCC1SC2C=CC1C2 (stereo unspecified)", "TGI": "> 100 µM"}
{"compound": "O=C(/C=C/c1ccc(O)c(O)c1)OCCCOC(=O)/C=C/c1ccc(O)c(O)c1", "TGI": "> 100 µM"}
{"compound": "CN=c1ssc(/N=C(\\SC)N(C)C)[n+]1C", "TGI": "> 100 µM"}
{"compound": "CC[C@H](C)[C@@H]([C@@H](CC(=O)N1CCC[C@H]1[C@H](OC)[C@@H](C)C(=O)N[C@H](C)[C@@H](O)c1ccccc1)OC)N(C)C(=O)[C@@H](NC(=O)[C@@H](NC)C(C)C)C(C)C (H-[NMeV]V[Dil][Dolaproine]-X2)", "TGI": "> 100 µM"}
{"compound": "CCOC(=O)O/C(=C\\c1ccc(OC)cc1)c1c(OC(=O)OCC)n(C(=O)OCC)c2ccccc12", "TGI": "> 100 µM"}
{"compound": "Cc1ccc(-c2cc(-c3ccccc3)nc(N)n2)c(O)c1", "TGI": "> 100 µM"}
{"compound": "CCC(=O)Nc1ccc(NCC(=O)Nc2ccc(Cl)cc2)cc1", "TGI": "56.5 µM"}
